Measured composite z-score values are reported for all entries that follow.
Test: small-molecule microarray binders of probe aWnt5a, primary screen, biochemical, biotinylated probe, 635/667 nm fluorescence (AID 1113);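 further: score merges 667 nm fluorescence intensity with signal-to-noise per printed feature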
Conditions: higher = more signal
Number only, please.

Some entries whose results are on file:
smilesRepr: CCOC(=O)[C@H]1C/C=C/C[C@H](C(=O)OCC)C(=O)O[C@H]2[C@@H](OC)O[C@H](CO)[C@@H](OC(=O)c3c(OC)cccc3OC)[C@@H]2OC1=O
composite z-score: -0.126
--
smilesRepr: COC(=O)[C@@]1(Cc2ccc(OC)cc2)[C@H]2c3cc(C(=O)N4CCCC4)n(CCN4CNCC4=O)c3C[C@H]2CN1C(=O)c1ccccc1
composite z-score: 1.19
--
smilesRepr: COC(=O)[C@@]1(CCS(=O)(=O)c2ccccc2)N=C(c2ccc(OCCCO)cc2)O[C@H]1c1ccccc1CN=[N+]=[N-]
composite z-score: -0.0539
--
smilesRepr: C=C[C@H](CO[Si](CC)(CC)CC)N(Cc1ccc(OC(C)=O)c(OC)c1)S(=O)(=O)c1ccc(Br)cc1
composite z-score: 0.101
--
smilesRepr: COC(=O)[C@@]1(Cc2ccc(OC)cc2)[C@H]2c3cc(C(=O)N4CCCC4)n(Cc4ccc(O)c(OC)c4)c3C[C@H]2CN1C(=O)c1ccccc1
composite z-score: 0.755
--
smilesRepr: CCOC(=O)C1=CC[C@@H](c2ccccc2)N(S(=O)(=O)c2ccc(C)cc2)[C@H]1c1ccccc1C
composite z-score: -0.0512

Okay, next one:
// returns reported composite z-score for input CO[C@H]1O[C@H](CO)[C@@H](OC(=O)Nc2ccccc2)[C@H](OC(=O)Nc2ccccc2)[C@@H]1OC(=O)Nc1ccccc1
0.111

---

Tested on: glycogen synthase kinase-3 (GSK3A per assay name; protocol says GSK3B)
Experiment: GSK3 binders on small-molecule microarrays, primary screen, biochemical, small-molecule microarray, 635 nm fluorescence, GSK3A (AID 1103); further: the record names both GSK3A and GSK3B
Settings: small-molecule microarray binding, fluorescence 635 nm; higher = more signal
parameter: composite z-score
Number only, please.

compound: C[C@H]1C2[C@H](Cc3ccccc3)NC(=O)[C@]23C(=O)N[C@H](Cc2ccccc2)C(=O)N2CCC[C@H]2C(=O)NC/C=C\C/C=C/C3[C@@H]2O[C@]12C (stereo partly drawn)
assayedSystem: glycogen synthase kinase-3 (GSK3A per assay name; protocol says GSK3B)
parameter: composite z-score
reportedValue: -0.298
--
compound: COc1cc2c(cc1OC)CN(C(=O)[C@@H]1[C@H]3C(=O)O[C@H](c4ccccc4)[C@H](c4ccccc4)N3[C@H](c3ccccc3OCCO)[C@@]13C(=O)Nc1ccc(C#CCCO)cc13)CC2
assayedSystem: glycogen synthase kinase-3 (GSK3A per assay name; protocol says GSK3B)
parameter: composite z-score
reportedValue: 0.926

Okay, next one:
// returns reported composite z-score for input CCOC(=O)C1=C[C@@H](C(C)(C)C)N(S(=O)(=O)c2ccc(C)cc2)[C@H]1c1ccc(F)cc1
1.29

---

Measured z-score values are reported for all entries that follow.
Experiment: basal S. cerevisiae growth modulation, no modifier, primary screen, OD600, strain BY4716, 24 h, basal condition (AID 1173)
Settings: OD600, 24 h, higher = more signal, called active from +8 up or from −8 down
Active and inactive are the calls of the source.

// returns reported z-score for input COCCOC(=O)N1C(=O)[C@@]2(c3cc(C#Cc4ccc(OC)cc4)ccc31)[C@H](c1ccccc1OCCO)N1[C@H](c3ccccc3)[C@H](c3ccccc3)OC(=O)[C@H]1[C@@H]2C(=O)NC[C@H](O)c1ccccc1
2.55 (inactive)

// returns reported z-score for input COCCOC(=O)N1C(=O)[C@@]2(c3ccccc31)[C@H](c1ccccc1OCCO)N1[C@H](c3ccccc3)[C@H](c3ccccc3)OC(=O)[C@H]1[C@@H]2C(=O)N1CCN(c2ncccn2)CC1
2.64 (inactive)

// returns reported z-score for input C=C(C)[C@@H]1CC=C(C(O)C2C=CC3C(=O)N(c4ccccc4)C(=O)C3N2Nc2ccccc2)CC1 (stereo partly drawn)
-1.81 (inactive)

---

Target: NADPH oxidase 5 (Homo sapiens)
Test: NOX5-dependent H2O2 signal modulators, primary screen, NOX inhibitor project, cell-based, HEK293-NOX5, Amplex Red fluorescence (AID 1161)
Conditions: HEK293-NOX5, ionomycin, 45 min, higher = more signal
parameter: z-score
Number only, please.

Some entries whose results are on file:
compound: C=C[C@H](CO)NS(=O)(=O)c1ccc(Br)cc1
z-score: 0.264

compound: COCCOC(=O)N1C(=O)[C@@]2(c3cc(C#CCNC(N)=O)ccc31)[C@H](C(=O)Nc1nc3ccccc3s1)[C@H]1C(=O)O[C@H](c3ccccc3)[C@H](c3ccccc3)N1[C@@H]2c1ccc(OCCO)cc1
z-score: 1.4

compound: COC(=O)[C@H](Cc1ccccc1)N1CC2=C[C@@H](C3CC3)n3c(=O)n(C)c(=O)n3[C@H]2[C@@H]1[C@@H](O)Cc1ccccc1
z-score: -1.71

compound: COc1ccc(-c2cc3c(c(-c4ccc(Oc5ccccc5)cc4)n2)[Si](C(C)C)(C(C)C)OC3)cn1
z-score: 0.179

compound: O[C@@H](Cc1ccccc1)[C@H]1C2C=CCCC=C2CN1Cc1cccc(Cl)c1 (some centres not stated)
z-score: -0.609

compound: COCCOC(=O)N1C(=O)[C@@]2(c3cc(C#CCCO)ccc31)[C@H](C(=O)N1CCCCCCC1)[C@H]1C(=O)O[C@H](c3ccccc3)[C@H](c3ccccc3)N1[C@@H]2c1ccc(OCCO)cc1
z-score: 0.603

// returns reported z-score for input CCOC(=O)C[C@H]1[C@H](OC(=O)c2ccc(-c3ccccc3)cc2)[C@@H](NC(=O)Cc2ccc(OC)cc2)c2cc(OCCCO)ccc2N1C(=O)c1ccccc1
-0.795

---

Measured z-score values are reported for all entries that follow.
Biological target: NADPH oxidase 5 (Homo sapiens)
Test: NOX5-dependent H2O2 signal modulators, primary screen, NOX inhibitor project, cell-based, HEK293-NOX5, Amplex Red fluorescence (AID 1161)
Details: HEK293-NOX5, ionomycin, 45 min, higher = more signal
Number only, please.

// returns reported z-score for input C=C(C(=O)CC[C@@H](OC(=O)c1cccnc1)c1ccccc1OCCO)C(C)C
-1.34

// returns reported z-score for input CCCC[C@@H]1C[C@H]1[C@@H](NC(=O)c1cccs1)c1ccc(-c2ccccc2)cc1
0.936

// returns reported z-score for input CO[C@H]1O[C@H](CO)[C@@H](OC(=O)Nc2ccc(C(F)(F)F)cc2)[C@H](OC(=O)Nc2ccc3c(c2)OCO3)[C@@H]1OC(=O)Nc1ccc2c(c1)OCO2
-0.486

// returns reported z-score for input C[C@H]1NC(=O)[C@@]23C(=O)N[C@@H](Cc4ccccc4)C2[C@H](C)[C@@]2(C)O[C@H]2C3/C=C/C/C=C\CNC(=O)[C@@H]2CCCN2C1=O (some centres not stated)
0.41

// returns reported z-score for input CN1C=C(C(=O)OCCS(C)(=O)=O)C(C(=O)OCCS(C)(=O)=O)=CC(c2ccc(CO)cc2)=CC1C1CC1 (configuration not stated)
-2.52

// returns reported z-score for input O=C(c1ccccc1)N1Cc2ccccc2C[C@@]2(COC(c3ccc(OCCCO)cc3)=N2)C1=O
-0.983

// returns reported z-score for input COC(=O)[C@@]1(Cc2ccc(OC)cc2)[C@H]2c3cc(C(=O)N(C)C)n(C)c3C[C@H]2CN1C(=O)c1ccccc1
2.16

---

Measured z-score values are reported for all entries that follow.
Experiment: modulators of HCV replicon luciferase signal, primary screen, HCV replication inhibitor project, Huh7 cells, luciferase reporter (AID 1109);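 further: huh7 hepatoma cells harbouring a luciferase neomycin HCV replicon reporter; luciferase luminescence as measure of HCV replicon replication; test concentration not given here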
Details: 48 h, higher = more signal
Number only, please.

// returns reported z-score for input O=C1C[C@@](C(=O)NC2CC2)(c2ccc([N+](=O)[O-])cc2)[C@@H](c2ccc(CO)cc2I)N1C1CCCCC1
-1.97

// returns reported z-score for input CN(C)CCCCCCNC(=O)[C@H]1C[C@H]2C(=O)N[C@@H](CCCCN)C(=O)N2[C@H]1c1cccc(OCCO)c1
0.386

---

Measured composite z-score values are reported for all entries that follow.
Target: Follistatin-related protein 3 (Homo sapiens) (UniProt O95633)
Sequence (O95633 whole entry, looked up): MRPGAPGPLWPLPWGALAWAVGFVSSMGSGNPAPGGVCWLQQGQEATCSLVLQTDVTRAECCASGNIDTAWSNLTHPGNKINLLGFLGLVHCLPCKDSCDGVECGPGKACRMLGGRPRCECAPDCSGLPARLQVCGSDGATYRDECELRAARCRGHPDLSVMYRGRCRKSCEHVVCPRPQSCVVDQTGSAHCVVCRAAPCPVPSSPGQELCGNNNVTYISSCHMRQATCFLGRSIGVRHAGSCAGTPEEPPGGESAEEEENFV
Experiment: FSTL3 binders on small-molecule microarrays, primary screen, biochemical, small-molecule microarray, 635 nm fluorescence (AID 1105);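 further: score merges emission near 667 nm and signal to noise per printed spot across three slides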
Details: FSTL3 binding, higher = more signal
Number only, please.

Some entries whose results are on file:
smilesRepr: COC(=O)[C@]1(CCC(=O)OC(C)(C)C)N=C(c2ccc(OCCCO)cc2)O[C@@H]1c1ccccc1CN=[N+]=[N-]
composite z-score: -0.307
//
smilesRepr: COC(=O)[C@@]1(Cc2ccc(OC)cc2)[C@@H]2C(=CC(=O)[C@H]2CC(=O)C(=O)N2CCCC2)CN1C(=O)c1ccccc1
composite z-score: 0.0649
//
smilesRepr: O=C(c1ccccc1)N1C(=O)[C@@]2(Cc3ccccc31)N=C(c1ccc(OCCCO)cc1)O[C@H]2c1ccccc1
composite z-score: 1.22

// returns reported composite z-score for input O=C1C[C@@](C(=O)NCCN2CCOCC2)(c2ccc([N+](=O)[O-])cc2)[C@@H](c2ccc(CO)cc2I)N1CC12CC3CC(CC(C3)C1)C2
1.03

// returns reported composite z-score for input COc1ccc(C#Cc2ccc3c(c2)[C@]2(C(=O)N3)[C@H](C(=O)NC[C@H](O)c3ccccc3)[C@H]3C(=O)O[C@H](c4ccccc4)[C@H](c4ccccc4)N3[C@@H]2c2ccc(O)cc2)cc1
0.768

// returns reported composite z-score for input C=CC(=C)[C@H]1Oc2ccccc2S(=O)(=O)N2CCC[C@@H]12
-0.0111

// returns reported composite z-score for input [N-]=[N+]=NCc1ccccc1C[C@]1(C(N)=O)COC(c2ccc(OCCCO)cc2)=N1
-0.0511
